- measurement_target: human TRPM8 (Homo sapiens, UniProt Q7Z2W7)
- Construct: expressed in transfected cells
- Sequence (Q7Z2W7 whole entry): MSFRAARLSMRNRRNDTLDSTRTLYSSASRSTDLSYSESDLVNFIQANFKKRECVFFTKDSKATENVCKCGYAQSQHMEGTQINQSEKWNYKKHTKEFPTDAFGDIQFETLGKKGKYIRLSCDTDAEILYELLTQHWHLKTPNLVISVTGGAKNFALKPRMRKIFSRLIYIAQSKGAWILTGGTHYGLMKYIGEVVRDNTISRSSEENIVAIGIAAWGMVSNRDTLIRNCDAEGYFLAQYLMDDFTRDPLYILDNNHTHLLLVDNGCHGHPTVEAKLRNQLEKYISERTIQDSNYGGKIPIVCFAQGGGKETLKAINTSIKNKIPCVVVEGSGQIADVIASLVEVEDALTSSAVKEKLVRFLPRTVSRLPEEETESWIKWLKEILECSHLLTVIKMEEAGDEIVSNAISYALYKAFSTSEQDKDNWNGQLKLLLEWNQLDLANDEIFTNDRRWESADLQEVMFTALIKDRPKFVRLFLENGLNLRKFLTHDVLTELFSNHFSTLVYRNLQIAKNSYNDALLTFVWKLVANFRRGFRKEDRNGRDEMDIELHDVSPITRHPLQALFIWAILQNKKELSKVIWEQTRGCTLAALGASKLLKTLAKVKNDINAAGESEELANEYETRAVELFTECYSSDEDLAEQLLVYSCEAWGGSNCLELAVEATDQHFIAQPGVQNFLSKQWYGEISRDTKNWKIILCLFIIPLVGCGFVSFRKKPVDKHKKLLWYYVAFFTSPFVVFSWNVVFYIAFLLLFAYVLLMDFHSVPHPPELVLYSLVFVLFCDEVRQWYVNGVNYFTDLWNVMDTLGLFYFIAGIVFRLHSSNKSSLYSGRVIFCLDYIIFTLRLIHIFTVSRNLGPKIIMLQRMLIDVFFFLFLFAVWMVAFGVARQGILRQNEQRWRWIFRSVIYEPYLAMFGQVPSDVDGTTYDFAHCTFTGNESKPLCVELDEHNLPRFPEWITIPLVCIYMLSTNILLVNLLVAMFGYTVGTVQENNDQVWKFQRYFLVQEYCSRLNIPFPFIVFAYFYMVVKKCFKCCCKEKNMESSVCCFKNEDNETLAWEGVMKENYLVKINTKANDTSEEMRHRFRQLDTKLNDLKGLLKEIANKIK
- assay_summary: In Vitro human TRPM8 Functional Assay (intracellular Ca2+, Fluo4, FDSS, menthol activation)
- Format: cell-based
- assay_setup: HEK293 cells stably expressing human TRPM8; activation with L-(-)-Menthol; 11-point dose-response
readout_type: IC50

Ask: Reported IC50, compound COc1ccc(OC)c(C(C)N(c2cccc(Cl)c2)S(=O)(=O)c2ccc(C)cc2)c1 (centres unmarked) [Example 86] : ____
Result: 1 to 10 µM

Ask: Now the compound COc1cccc(C(C)N(c2ccccc2)S(=O)(=O)c2cccc(F)c2)c1 (centres unmarked) [Example 138]
Result: 1 to 10 µM

Ask: Now the compound Cn1cc(-c2ccc(CN(c3ncc(C(F)(F)F)cc3Cl)S(=O)(=O)c3ccc(C(=O)O)cc3)cc2)cn1 [Example 152]
Result: < 1 µM

Ask: Now the compound O=C(O)c1ccc(Cl)c(S(=O)(=O)N(Cc2ccccc2)c2ccc(Cl)cc2)c1 [Example 110]
Result: 1 to 10 µM

Ask: Now the compound O=C(O)c1ccc(S(=O)(=O)N(Cc2ccc(Cl)c(F)c2)c2ncc(C(F)(F)F)cc2Cl)cc1 [Example 65]
Result: < 1 µM

Ask: Now the compound O=C(O)c1ccc(S(=O)(=O)N(Cc2ccccc2)c2ncc(C(F)(F)F)cc2Cl)c(F)c1 [Example 190]
Result: < 1 µM

Ask: Now the compound Cc1cc(Cl)cnc1N(Cc1ccc(Cl)c(C(F)(F)F)c1)S(=O)(=O)c1ccc(C(=O)O)cc1 [Example 79]
Result: < 1 µM

Ask: Now the compound Cc1cc(C)c(S(=O)(=O)N(Cc2ccccc2)c2ccccn2)c(C)c1 [Example 127]
Result: 1 to 10 µM

---

- measurement_target: UniProt:Q7Z2W7
- assay_summary: In Vitro human TRPM8 Functional Assay (intracellular Ca2+, Fluo4, FDSS, menthol activation)
- assay_setup: HEK293 cells stably expressing human TRPM8; activation with L-(-)-Menthol; 11-point dose-response
pIC50: −log10 of the molar value.
readout_type: pIC50

Ask: Form entry - test system: UniProt:Q7Z2W7; read-out: pIC50; compound: O=C(O)c1ccc(S(=O)(=O)N(Cc2noc(-c3ccccc3)n2)c2ncc(C(F)(F)F)cc2Cl)cc1 [Example 199]
Result: > 6.00

Ask: Now the compound O=C(O)c1ccc(S(=O)(=O)N(Cc2ccc(F)cc2)c2ncc(Cl)cc2Cl)cc1 [Example 61]
Result: > 6.00

Ask: Now the compound O=C(O)c1ccc(S(=O)(=O)N(Cc2ccccc2)c2ncc(C(F)(F)F)cc2Cl)cc1F [Example 191]
Result: > 6.00

Ask: Now the compound COc1ccc(N(C(C)c2ccccc2F)S(=O)(=O)c2ccc(F)cc2)cc1 (stereo not drawn) [Example 88]
Result: > 6.00

Ask: Now the compound O=C(O)c1ccc(S(=O)(=O)N(CC2CCCC2)c2ncc(C(F)(F)F)cc2Cl)cc1 [Example 192]
Result: > 6.00

Ask: Now the compound O=C(O)c1ccc(S(=O)(=O)N(Cc2ccccc2)c2ccc(C(F)(F)F)cc2Cl)cc1 [Example 56]
Result: > 6.00

Ask: Now the compound Cc1ccc(S(=O)(=O)N(Cc2ccccc2)c2ccccn2)cc1 [Example 106]
Result: 5.00 to 6.00

Ask: Now the compound COc1ccc(S(=O)(=O)N(Cc2ccccc2)c2ccccn2)cc1 [Example 132]
Result: 5.00 to 6.00

Ask: Now the compound CCOc1ccccc1N(Cc1ccc(Cl)cc1)S(=O)(=O)c1cccc(C(=O)O)c1 [Example 125]
Result: 5.00 to 6.00

Ask: Now the compound O=S(=O)(c1ccc(Cl)cc1)N(Cc1ccccc1)c1ccccn1 [Example 129]
Result: 5.00 to 6.00

Ask: Now the compound O=C(O)c1ccc(S(=O)(=O)N(Cc2ccccc2)c2ncc(C(F)(F)F)cc2C2CC2)cc1 [Example 149]
Result: > 6.00

Ask: Now the compound O=S(=O)(c1ccc(CO)cc1)N(Cc1ccccc1)c1ncc(C(F)(F)F)cc1Cl [Example 9]
Result: > 6.00

Ask: Now the compound COc1ccc(N(C(C)c2ccccc2OC)S(=O)(=O)c2ccc(C)cc2)cc1 (stereo not drawn) [Example 89]
Result: 5.00 to 6.00

Ask: Now the compound COc1ccc(N(Cc2ccccc2)S(=O)(=O)c2cc(C(=O)O)ccc2Cl)cc1 [Example 124]
Result: 5.00 to 6.00

Ask: Now the compound O=C(O)c1ccc(S(=O)(=O)N(Cc2ccc(OCC(F)(F)F)cc2)c2ncc(C(F)(F)F)cc2Cl)cc1 [Example 41]
Result: > 6.00

Ask: Now the compound O=C(O)c1ccc(S(=O)(=O)N(CC2CCC2)c2ncc(C(F)(F)F)cc2Cl)cc1 [Example 171]
Result: > 6.00

Ask: Now the compound COc1ccccc1C(C)N(c1cccc(F)c1)S(=O)(=O)c1ccc(C)c(Cl)c1 (stereo not drawn) [Example 105]
Result: 5.00 to 6.00

Ask: Now the compound COc1ccc(OC)c(C(C)N(c2cccc(F)c2)S(=O)(=O)c2cc(F)ccc2C)c1 (stereo not drawn) [Example 136]
Result: 5.00 to 6.00

Ask: Now the compound COc1cccc(N(C(C)c2ccccc2F)S(=O)(=O)c2ccccc2F)c1 (stereo not drawn) [Example 92]
Result: 5.00 to 6.00

Ask: Now the compound CN(C)S(=O)(=O)NCc1ccc(S(=O)(=O)N(Cc2ccccc2)c2ncc(C(F)(F)F)cc2Cl)cc1 [Example 178]
Result: > 6.00

Ask: Now the compound O=C(O)c1ccc(S(=O)(=O)N(Cc2ccccc2OC(F)(F)F)c2ncc(C(F)(F)F)cc2Cl)cc1 [Example 51]
Result: > 6.00

Ask: Now the compound O=C(O)c1ccc(S(=O)(=O)N(Cc2ccc(F)c(Cl)c2)c2ncc(C(F)(F)F)cc2Cl)cc1 [Example 71]
Result: > 6.00

Ask: Now the compound O=C(O)c1ccc(S(=O)(=O)N(Cc2ccccc2)c2ncc(C(F)(F)F)cc2Cl)cc1 [Example 1]
Result: > 6.00

Ask: Now the compound O=S(=O)(c1ccc(F)cc1)N(Cc1ccccc1)c1ccccn1 [Example 108]
Result: 5.00 to 6.00

Ask: Now the compound O=S(=O)(c1ccc(O)nc1)N(Cc1ccccc1)c1ncc(C(F)(F)F)cc1Cl [Example 144]
Result: > 6.00

Ask: Now the compound O=C(O)c1ccc(S(=O)(=O)N(Cc2ccccc2F)c2ncc(C(F)(F)F)cc2Cl)cc1 [Example 20]
Result: > 6.00

Ask: Now the compound O=C(O)c1ccc(S(=O)(=O)N(Cc2ccc(N3CCCC3=O)cc2)c2ncc(Cl)cc2Cl)cc1 [Example 74]
Result: 5.00 to 6.00

Ask: Now the compound COc1ccc(N(Cc2ccccc2)S(=O)(=O)c2cccc(C(=O)O)c2)cc1 [Example 113]
Result: 5.00 to 6.00

Ask: Now the compound O=C(O)c1ccc(S(=O)(=O)N(Cc2ccc(F)cc2F)c2ncc(C(F)(F)F)cc2Cl)cc1 [Example 26]
Result: > 6.00

Ask: Now the compound O=C(O)c1ccc(S(=O)(=O)N(Cc2ccccc2)c2ncc(C(F)(F)F)cc2Cl)c(Cl)c1 [Example 181]
Result: > 6.00

Ask: Now the compound O=C(O)c1ccc(S(=O)(=O)N(CCN2CCOCC2)c2ncc(C(F)(F)F)cc2Cl)cc1 [Example 57]
Result: 5.00 to 6.00

Ask: Now the compound COc1cccc(N(CC(=O)N2CCN(Cc3ccccc3)CC2)S(=O)(=O)c2ccccc2)c1 [Example 84]
Result: 5.00 to 6.00

Ask: Now the compound Cc1ccc(CN(c2ncc(C(F)(F)F)cc2Cl)S(=O)(=O)c2ccc(C(=O)O)cc2)cc1 [Example 27]
Result: > 6.00

---

- measurement_target: UniProt Q7Z2W7
- assay_summary: In Vitro human TRPM8 Functional Assay (intracellular Ca2+, Fluo4, FDSS, menthol activation)
- assay_setup: HEK293 cells stably expressing human TRPM8; activation with L-(-)-Menthol; 11-point dose-response
readout_type: IC50

Ask: Reported IC50, molecule CC(=O)Nc1ccc(S(=O)(=O)N(Cc2ccccc2)c2ccccn2)cc1 : ____
Result: 1000 to 10000 nM

Ask: Now the molecule O=C(O)c1ccc(S(=O)(=O)N(Cc2ccc(F)c(F)c2)c2ncc(C(F)(F)F)cc2Cl)cc1
Result: < 1000 nM

Ask: Now the molecule O=C(O)c1ccc(S(=O)(=O)N(Cc2ccccc2)c2ncc(-c3ccco3)cc2Cl)cc1
Result: < 1000 nM

Ask: Now the molecule O=C(O)c1ccc(S(=O)(=O)N(Cc2ccc(OC(F)(F)F)cc2)c2ncc(Cl)cc2Cl)cc1
Result: < 1000 nM

Ask: Now the molecule COc1ccc(OC)c(C(C)N(c2ccc(C)cc2)S(=O)(=O)c2ccc(F)cc2C)c1 (centres unmarked)
Result: 1000 to 10000 nM

Ask: Now the molecule N#Cc1ccc(CN(c2ncc(C(F)(F)F)cc2Cl)S(=O)(=O)c2ccc(C(=O)O)cc2)cc1
Result: < 1000 nM

Ask: Now the molecule COc1ccc(N(Cc2ccccc2)S(=O)(=O)c2ccc(Cl)c(C(=O)O)c2)cc1
Result: 10000 to 30000 nM

Ask: Now the molecule O=C(O)c1ccc(S(=O)(=O)N(Cc2cccs2)c2ncc(C(F)(F)F)cc2Cl)cc1
Result: < 1000 nM
